System: EAN model rats
Assay: Pre-experimental dose study: clinical score of neurological symptoms of EAN model rats
Format: in vivo, Lewis rats
Details: 2.0 mg/kg, score 0-10
Quick reference for Clinical score (D17) among some compounds

{"columns": ["compound", "target.of.assay", "Clinical score (D17)"],
 "data": [
  ["CC(C)(C)[C@]1(O)CC2OC(=O)CC23C(=O)OC2OC(=O)[C@H](O)C231 (some centres unmarked) [Bilobalide, bilobalide]", "EAN model rats", 5.70],
  ["CC1C(=O)OC2C(O)C34C5CC(C(C)(C)C)C36C(OC(=O)C6O)OC4(C(=O)O5)C12O (centres unmarked) [Ginkgolide B, ginkgolide B]", "EAN model rats", 6.10],
  ["C[C@@H]1C(=O)O[C@H]2C[C@@]34[C@H]5C[C@@H](C(C)(C)C)[C@]36[C@@H](OC(=O)[C@@H]6O)O[C@@]4(C(=O)O5)[C@]21O [Ginkgolide A, ginkgolide A]", "EAN model rats", 7.00],
  ["C[C@@H]1C(=O)O[C@@H]2[C@H]1[C@@]13OC4OC(=O)[C@H](O)C45[C@H](C(C)(C)C)[C@@H](O)C(OC1=O)[C@]53[C@H]2O (some centres unmarked) [Ginkgolide M, ginkgolide M]", "EAN model rats", 7.10],
  ["CC1=C2[C@@H](OC1=O)[C@H](O)[C@]13[C@H]4C[C@@H](C(C)(C)C)[C@]15[C@@H](OC(=O)[C@@H]5O)O[C@@]23C(=O)O4 [Ginkgolide K, ginkgolide K]", "EAN model rats", 7.20]
]}

---

Test system: TNF-α
Test: mRNA level of TNF-α in sciatic nerve tissue of EAN model rabbits (RT-PCR)
Type: in vivo, big-ear white rabbits
Conditions: 14th day after modeling, ginkgolide groups 4.5 mg/kg intragastric 2 times a day, positive control 400 mg/kg·d i.p. 5 days
readout: Cytokines TNF-α (mRNA level, sciatic nerve tissue)

{"columns": ["compound", "test.value"],
 "data": [
  ["CC1C(=O)OC2C(O)C34C5CC(C(C)(C)C)C36C(OC(=O)C6O)OC4(C(=O)O5)C12O (centres unmarked) [Ginkgolide B, ginkgolide B]", 2.978],
  ["C[C@@H]1C(=O)O[C@H]2C[C@@]34[C@H]5C[C@@H](C(C)(C)C)[C@]36[C@@H](OC(=O)[C@@H]6O)O[C@@]4(C(=O)O5)[C@]21O [Ginkgolide A, ginkgolide A]", 4.693],
  ["C[C@@H]1C(=O)O[C@@H]2[C@H]1[C@@]13OC4OC(=O)[C@H](O)C45[C@H](C(C)(C)C)[C@@H](O)C(OC1=O)[C@]53[C@H]2O (some centres unmarked) [Ginkgolide M, ginkgolide M]", 4.797],
  ["CC(C)(C)[C@]1(O)CC2OC(=O)CC23C(=O)OC2OC(=O)[C@H](O)C231 (some centres unmarked) [Bilobalide, bilobalide]", 3.054],
  ["CC1=C2[C@@H](OC1=O)[C@H](O)[C@]13[C@H]4C[C@@H](C(C)(C)C)[C@]15[C@@H](OC(=O)[C@@H]5O)O[C@@]23C(=O)O4 [Ginkgolide K, ginkgolide K]", 4.739]
]}

---

Quick reference for Pain reaction score (D18) among some molecules
Tested on: EAN model rats
Experiment: Test on algesia of ankle joint (pain reaction score) of EAN model rats
Format: in vivo, Lewis rats
Conditions: ankle dorsiflexion, score 0-5

{"columns": ["molecule", "Pain reaction score (D18)"],
 "data": [
  ["CC1=C2[C@@H](OC1=O)[C@H](O)[C@]13[C@H]4C[C@@H](C(C)(C)C)[C@]15[C@@H](OC(=O)[C@@H]5O)O[C@@]23C(=O)O4 [Ginkgolide K, ginkgolide K]", 1.2],
  ["CC(C)(C)[C@]1(O)CC2OC(=O)CC23C(=O)OC2OC(=O)[C@H](O)C231 (some centres unmarked) [Bilobalide, bilobalide]", 2.9],
  ["CC1C(=O)OC2C(O)C34C5CC(C(C)(C)C)C36C(OC(=O)C6O)OC4(C(=O)O5)C12O (centres unmarked) [Ginkgolide B, ginkgolide B]", 3.0],
  ["C[C@@H]1C(=O)O[C@H]2C[C@@]34[C@H]5C[C@@H](C(C)(C)C)[C@]36[C@@H](OC(=O)[C@@H]6O)O[C@@]4(C(=O)O5)[C@]21O [Ginkgolide A, ginkgolide A]", 2.0],
  ["C[C@@H]1C(=O)O[C@@H]2[C@H]1[C@@]13OC4OC(=O)[C@H](O)C45[C@H](C(C)(C)C)[C@@H](O)C(OC1=O)[C@]53[C@H]2O (some centres unmarked) [Ginkgolide M, ginkgolide M]", 1.4]
]}

Values compiled from patent US20220193030A1.
